Attribution: patent US20260242478A1

test target: anti-CD28 Fab
Sequence (VH, as listed by the source, chain 1 of 2): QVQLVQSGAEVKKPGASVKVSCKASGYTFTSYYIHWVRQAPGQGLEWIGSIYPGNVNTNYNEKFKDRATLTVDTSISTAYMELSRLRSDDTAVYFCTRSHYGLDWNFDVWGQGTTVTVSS
Sequence (VL, as listed by the source, chain 2 of 2): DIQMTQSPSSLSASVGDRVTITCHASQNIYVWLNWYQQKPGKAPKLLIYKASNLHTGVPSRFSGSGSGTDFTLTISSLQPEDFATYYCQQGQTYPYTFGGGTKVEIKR
protocol details: competition ELISA, peptide titrated 0-100 uM against 1 nM anti-CD28 Fab, plate-bound CD28 as competitor
Listed here are binders together with their documented IC50.
The response must be a number in nM with no trailing unit.

Recorded IC50, per entry:
binder | IC50 (nM)
TCAAGATWSWPACF [Peptide-142] | 620
TCAAGAAWPWPQCL [Peptide-140] | 760
TCSAGAAYPWPLCL [Peptide-145] | 7700

Query string: Give the measured IC50 of LCAAGASWPWPVCL [Peptide-138] .
Result string: 3610
